Can you tell me melting point for the items I'm about to list?

Prompt line: I would be grateful if you could share the reported melting point for Cc1scnc1C#CCCNc1ncnc2sccc12 [compound 65] .
Response line: 148 to 150 °C

Prompt line: Also need C(#Cc1cccnc1)CCNc1ncnc2sccc12 [compound 56] , thanks.
Response line: 138 to 140 °C

Prompt line: Also need COCc1ccccc1C#CCCNc1ncnc2ccc(I)cc12 [compound 322] , thanks.
Response line: 121 to 123 °C

Prompt line: Also need CC(CC#Cc1cscn1)Nc1ncnc2ccccc12 (stereo not shown) [compound 291] , thanks.
Response line: 142 to 145 °C

Prompt line: Also need OCc1cnccc1C#CCCNc1ncnc2ccccc12 [compound 201] , thanks.
Response line: 182 to 186 °C

Prompt line: Also need OC(c1ccccc1C#CCCNc1ncnc2ccccc12)C(F)(F)F (stereo not shown) [compound 138] , thanks.
Response line: 183 to 187 °C

Prompt line: Also need C=C(C)CCc1ccccc1C#CCCNc1ncnc2ccccc12 [compound 105] , thanks.
Response line: 92 to 94 °C

Prompt line: Also need Clc1ccc(Cl)c(C#CCCNc2ncnc3ccccc23)c1 [compound 173] , thanks.
Response line: 176 to 177 °C

Prompt line: Also need OCc1ccc(C#CCCNc2ncnc3ccccc23)cc1 [compound 132] , thanks.
Response line: 69 to 71 °C

Prompt line: Also need CSc1cccc(C#CCCNc2ncnc3ccccc23)c1 [compound 116] , thanks.
Response line: 141 to 142 °C

* * *

MEASUREMENT_TYPE: melting point

Prompt line: I would be grateful if you could share the reported melting point for "Cc1nc(C#CCCNc2ncnc3sccc23)cs1" .
Response line: 160 to 161 °C

Prompt line: Also need "Clc1ccc(C#CCCNc2ncnc3ccccc23)cc1Cl" , thanks.
Response line: 147 to 148 °C

Prompt line: Also need "Fc1cncc(C#CCCNc2ncnc3ccccc23)c1" , thanks.
Response line: 145 to 150 °C

Prompt line: Also need "Clc1ncccc1C#CCCNc1ncnc2ccccc12" , thanks.
Response line: 168 to 170 °C

Prompt line: Also need "FC(F)(F)c1ccccc1C#CCCNc1ncnc2cc(Cl)ccc12" , thanks.
Response line: 153 to 154 °C

Prompt line: Also need "COc1ccc(C#CCCNc2ncnc3sccc23)cc1OC" , thanks.
Response line: 182 to 184 °C

Prompt line: Also need "C(#Cc1ccc2ccccc2c1)CCNc1ncnc2ccccc12" , thanks.
Response line: 159 to 160 °C

Prompt line: Also need "CCOC(=O)c1sc(C#CCCNc2ncnc3ccccc23)nc1C" , thanks.
Response line: 139 to 140 °C

Prompt line: Also need "COCc1cc(F)c(F)cc1C#CCCNc1ncnc2ccccc12" , thanks.
Response line: 121 to 125 °C

Prompt line: Also need "FC(F)(F)c1cccc(C#CCCNc2ncnc3sccc23)c1" , thanks.
Response line: 123 to 125 °C

* * *

MEASUREMENT_TYPE: melting point

Prompt line: I would be grateful if you could share the reported melting point for Clc1ccc(C#CCCNc2ncnc3ccccc23)c(Cl)c1 [compound 172] .
Response line: 182 to 183 °C

Prompt line: Also need OCc1nc(C#CCCNc2ncnc3sccc23)cs1 [compound 70] , thanks.
Response line: 193 °C

Prompt line: Also need C(#Cc1ccc(OC2CCCCO2)cc1)CCNc1ncnc2ccccc12 (stereo not drawn) [compound 156] , thanks.
Response line: 163 to 165 °C

Prompt line: Also need O=[N+]([O-])c1cccc(C#CCCNc2ncnc3sccc23)c1 [compound 39] , thanks.
Response line: 171 to 172 °C

Prompt line: Also need C(#Cc1ccccc1)CC(Nc1ncnc2ccccc12)c1ccccc1 (stereo not drawn) [Compound No. 301] , thanks.
Response line: 141 to 143 °C

Prompt line: Also need FC(F)(F)c1cccc(Oc2nc(C#CCCNc3ncnc4ccccc34)cs2)c1 [compound 219] , thanks.
Response line: 106 to 108 °C

Prompt line: Also need FC(F)(F)c1ccc(Oc2nc(C#CCCNc3ncnc4ccccc34)cs2)cc1 [compound 220] , thanks.
Response line: 137 to 139 °C

Prompt line: Also need C(#Cc1csc(-c2ccoc2)n1)CCNc1ncnc2sccc12 [compound 78] , thanks.
Response line: 140 to 142 °C

Prompt line: Also need N#Cc1c(F)cccc1C#CCCNc1ncnc2ccccc12 [compound 165] , thanks.
Response line: 163 to 164 °C

* * *

Can you tell me melting point for the items I'm about to list?

Prompt line: I would be grateful if you could share the reported melting point for "C(#Cc1csc(-c2ccccc2)n1)CCNc1ncnc2sccc12" .
Response line: 134 to 136 °C

Prompt line: Also need "FC(F)(F)c1ccccc1Oc1nc(C#CCCNc2ncnc3ccccc23)cs1" , thanks.
Response line: 159 to 161 °C

Prompt line: Also need "O=[N+]([O-])c1ccc(C#CCCNc2ncnc3sccc23)cc1" , thanks.
Response line: 184 to 185 °C

Prompt line: Also need "C(#Cc1csc(-c2ccco2)n1)CCNc1ncnc2sccc12" , thanks.
Response line: 53 to 55 °C

Prompt line: Also need "Clc1cc(NCCC#Cc2ccccc2)ncn1" , thanks.
Response line: 118 to 120 °C

Prompt line: Also need "Clc1cccc(C#CCCNc2ncnc3ccccc23)c1Cl" , thanks.
Response line: 175 to 176 °C

Prompt line: Also need "Fc1cccc(F)c1C#CCCNc1ncnc2sccc12" , thanks.
Response line: 179 to 181 °C

Prompt line: Also need "CS(=O)(=O)c1ccc(C#CCCNc2ncnc3ccccc23)cc1" , thanks.
Response line: 164 to 165 °C

Prompt line: Also need "CC(C)[Si](C#CCCNc1ncnc2sccc12)(C(C)C)C(C)C" , thanks.
Response line: 196 to 198 °C

Prompt line: Also need "Cc1cccc(C#CCCNc2ncnc3sccc23)c1" , thanks.
Response line: 120 to 123 °C

Prompt line: Also need "C=C(C#CCCNc1ncnc2ccccc12)CO" , thanks.
Response line: 139 °C

Prompt line: Also need "FC(F)(F)c1ccc(C#CCCNc2ncnc3ccccc23)cn1" , thanks.
Response line: 134 to 139 °C

Prompt line: Also need "FC(F)(F)c1cc(C#CCCNc2ncnc3sccc23)cc(C(F)(F)F)c1" , thanks.
Response line: 163 to 166 °C

Prompt line: Also need "OCc1ccc(C#CCCNc2ncnc3ccccc23)cn1" , thanks.
Response line: 183 to 185 °C

Prompt line: Also need "Clc1ncnc(NCCC#Cc2ccccc2)c1Cc1ccccc1" , thanks.
Response line: 157 to 158 °C

Prompt line: Also need "Fc1ccc(C#CCCNc2ncnc3sccc23)c(F)c1" , thanks.
Response line: 177 to 178 °C

Prompt line: Also need "C(#Cc1nccs1)CCNc1ncnc2sccc12" , thanks.
Response line: 128 to 129 °C

Prompt line: Also need "C(#Cc1ccccc1)CCNc1ncnc2[nH]cnc12" , thanks.
Response line: 207 to 208 °C

Prompt line: Also need "C(#Cc1csc(-c2cccnc2)n1)CCNc1ncnc2sccc12" , thanks.
Response line: 175 to 177 °C

Prompt line: Also need "C(#Cc1ccncc1)CCNc1ncnc2sccc12" , thanks.
Response line: 140 to 141 °C

Prompt line: Also need "C(#Cc1csc(-c2ccsc2)n1)CCNc1ncnc2sccc12" , thanks.
Response line: 55 to 56 °C

* * *

MEASUREMENT_TYPE: melting point

Prompt line: I would be grateful if you could share the reported melting point for "OCc1cc(C#CCCNc2ncnc3ccccc23)co1" .
Response line: 135 to 147 °C

Prompt line: Also need "OCc1cccc(C#CCCNc2ncnc3ccccc23)c1" , thanks.
Response line: 113 to 115 °C

Prompt line: Also need "CCOC(=O)c1cnc(C#CCCNc2ncnc3ccccc23)s1" , thanks.
Response line: 113 to 114 °C

Prompt line: Also need "Fc1cccc(Oc2nc(C#CCCNc3ncnc4ccccc34)cs2)c1" , thanks.
Response line: 134 to 136 °C

Prompt line: Also need "Fc1cc(C#CCCNc2ncnc3sccc23)cc(F)c1F" , thanks.
Response line: 158 to 159 °C

Prompt line: Also need "C(#Cc1ccccc1)CCNc1ncnc2ccccc12" , thanks.
Response line: 120 to 122 °C

Prompt line: Also need "C(#Cc1cscn1)CCNc1ncnc2sccc12" , thanks.
Response line: 174 °C

Prompt line: Also need "Fc1cc(Cl)ccc1C#CCCNc1ncnc2ccccc12" , thanks.
Response line: 198 to 199 °C

Prompt line: Also need "Fc1ccc(C#CCCNc2ncnc3ccccc23)cc1F" , thanks.
Response line: 161 to 162 °C

Prompt line: Also need "C(#Cc1cncs1)CCNc1ncnc2sccc12" , thanks.
Response line: 156 to 158 °C

* * *

MEASUREMENT_TYPE: melting point

Prompt line: I would be grateful if you could share the reported melting point for CC(=O)OCc1nc(C#CCCNc2ncnc3sccc23)cs1 [compound 73] .
Response line: 128 to 129 °C

Prompt line: Also need Cc1cc(C)nc(C#CCCNc2ncnc3sccc23)n1 [compound 59] , thanks.
Response line: 112 to 113 °C

Prompt line: Also need CCOc1ccccc1C#CCCNc1ncnc2ccccc12 [compound 118] , thanks.
Response line: 119 to 120 °C

Prompt line: Also need Clc1ncnc(NCCC#Cc2ccccc2)c1Cl [compound 357] , thanks.
Response line: 122 to 123 °C

Prompt line: Also need COC(=O)c1cccc(C#CCCNc2ncnc3sccc23)c1 [compound 30] , thanks.
Response line: 163 to 166 °C

Prompt line: Also need N#Cc1ccc(Oc2nc(C#CCCNc3ncnc4ccccc34)cs2)cc1 [compound 223] , thanks.
Response line: 55 to 57 °C

Data provenance is patent US9089139B2.
